- experimentalDetails: RNA encapsulation efficiency (modified Quant-iT RiboGreen assay) and loading
- Assay type: physicochemical
- conditionSet: FxNP, siFLuc, DOPC
Would you kindly list siRNA mass % for each of these compounds?
API: value field is a number in %; no unit string.

Ask | # lookup: siRNA mass % of CC12CCC3c4ccc(O)cc4CC(CCCCCCCCCS(=O)(CCCC(F)(F)C(F)(F)F)=NC(=O)CN4CCOCC4)C3C1CCC2O (stereo not shown) [7a]
Reply | 3.0

Ask | Param item = CC12CCC3c4ccc(O)cc4CC(CCCCCCCCCS(=O)(CCCC(F)(F)C(F)(F)F)=NC(=O)Cn4ccnc4)C3C1CCC2O (stereo not shown) [7b] ; retrieve measured siRNA mass %.
Reply | 4.2

Ask | Need siRNA mass % of CC12CCC3c4ccc(O)cc4CC(CCCCCCCCCS(=O)(CCCC(F)(F)C(F)(F)F)=NC(=O)CCN4CCOCC4)C3C1CCC2O (stereo not shown) [7d] , thanks.
Reply | 4.0

Ask | Could you tell me which siRNA mass % is on file for CC12CCC3c4ccc(O)cc4CC(CCCCCCCCCS(=O)(CCCC(F)(F)C(F)(F)F)=NC(=O)CCn4ccnc4)C3C1CCC2O (stereo not shown) [7c] ?
Reply | 4.4

Ask | Recorded siRNA mass % for CN(C)CC(=O)N=S(=O)(CCCCCCCCCC1Cc2cc(O)ccc2C2CCC3(C)C(O)CCC3C12)CCCC(F)(F)C(F)(F)F (stereo not shown) [7f] , please?
Reply | 4.8

Ask | Query (compound): CC12CCC3c4ccc(O)cc4CC(CCCCCCCCCS(=O)(CCCC(F)(F)C(F)(F)F)=NC(=O)CCN4CCCCC4)C3C1CCC2O (stereo not shown) [7g] ; field requested: siRNA mass %
Reply | 4.8

Ask | What does the record list as siRNA mass % for CC12CCC3c4ccc(O)cc4CC(CCCCCCCCCS(=O)(CCCC(F)(F)C(F)(F)F)=NC(=O)CN4CCCCC4)C3C1CCC2O (stereo not shown) [7e] ?
Reply | 4.6

* * *

Could you please report measured Small molecule drug mass % for the items listed next?
- experimentalDetails: RNA encapsulation efficiency (modified Quant-iT RiboGreen assay) and loading
- Format: physicochemical
- conditionSet: FxNP, siFLuc, DSPC
// units = %; emit number, no label

Ask | Suppose we examine the molecule CC12CCC3c4ccc(O)cc4CC(CCCCCCCCCS(=O)(CCCC(F)(F)C(F)(F)F)=NC(=O)CN4CCCCC4)C3C1CCC2O (centres unmarked) ; what Small molecule drug mass % value has been reported?
Reply | 55.7

Ask | Reported Small molecule drug mass %, molecule CN1CCN(CC(=O)N=S(=O)(CCCCCCCCCC2Cc3cc(O)ccc3C3CCC4(C)C(O)CCC4C23)CCCC(F)(F)C(F)(F)F)CC1 (centres unmarked) : ____
Reply | 57.2

Ask | Which Small molecule drug mass % reading was recorded for the molecule CC12CCC3c4ccc(O)cc4CC(CCCCCCCCCS(=O)(CCCC(F)(F)C(F)(F)F)=NC(=O)Cn4ccnc4)C3C1CCC2O (centres unmarked) ?
Reply | 55.2

Ask | // Small molecule drug mass % lookup, key: CC12CCC3c4ccc(O)cc4CC(CCCCCCCCCS(=O)(CCCC(F)(F)C(F)(F)F)=NC(=O)CCN4CCOCC4)C3C1CCC2O (centres unmarked)
Reply | 56.3

Ask | # Small molecule drug mass % lookup, item CC12CCC3c4ccc(O)cc4CC(CCCCCCCCCS(=O)(CCCC(F)(F)C(F)(F)F)=NC(=O)CCN4CCCCC4)C3C1CCC2O (centres unmarked)
Reply | 56.0

Ask | Can you share its Small molecule drug mass %? I mean this molecule: CC12CCC3c4ccc(O)cc4CC(CCCCCCCCCS(=O)(CCCC(F)(F)C(F)(F)F)=NC(=O)C[N+](C)(C)C)C3C1CCC2O (centres unmarked)
Reply | 54.9

Ask | So what's the measured Small molecule drug mass % for this one? CC12CCC3c4ccc(O)cc4CC(CCCCCCCCCS(=O)(CCCC(F)(F)C(F)(F)F)=NC(=O)CCn4ccnc4)C3C1CCC2O (centres unmarked)
Reply | 55.6

Ask | # input molecule: CC12CCC3c4ccc(O)cc4CC(CCCCCCCCCS(=O)(CCCC(F)(F)C(F)(F)F)=NC(=O)CN4CCOCC4)C3C1CCC2O (centres unmarked) ; wanted: its Small molecule drug mass %
Reply | 56.3

Ask | Look at this molecule and give its reported Small molecule drug mass %. CC12CCC3c4ccc(O)cc4CC(CCCCCCCCCS(=O)(CCCC(F)(F)C(F)(F)F)=NC(=O)CN)C3C1CCC2O (centres unmarked)
Reply | 53.4

Ask | Could you tell me which Small molecule drug mass % is on file for CC12CCC3c4ccc(O)cc4CC(CCCCCCCCCS(=O)(CCCC(F)(F)C(F)(F)F)=NC(=O)CN4CCCC4)C3C1CCC2O (centres unmarked) ?
Reply | 55.3

Ask | Would you mind telling me what Small molecule drug mass % value was observed for CN(C)CC(=O)N=S(=O)(CCCCCCCCCC1Cc2cc(O)ccc2C2CCC3(C)C(O)CCC3C12)CCCC(F)(F)C(F)(F)F (centres unmarked) ?
Reply | 54.2

Ask | Fill in the blank: the reported Small molecule drug mass % of C[C@]12CC[C@@H]3c4ccc(O)cc4C[C@@H](CCCCCCCCC[S+]([O-])CCCC(F)(F)C(F)(F)F)[C@H]3[C@@H]1CC[C@@H]2O (some centres unmarked) [FV, fulvestrant, reference compound] is ____.
Reply | 52.8

Ask | Could you tell me which Small molecule drug mass % is on file for CN(C)CCC(=O)N=S(=O)(CCCCCCCCCC1Cc2cc(O)ccc2C2CCC3(C)C(O)CCC3C12)CCCC(F)(F)C(F)(F)F (centres unmarked) ?
Reply | 55.1

Ask | So what's the measured Small molecule drug mass % for this one? CC12CCC3c4ccc(O)cc4CC(CCCCCCCCCS(=O)(CCCC(F)(F)C(F)(F)F)=NC(=O)CCN4CCCC4)C3C1CCC2O (centres unmarked)
Reply | 56.2

* * *

- experimentalDetails: Hydrodynamic diameter and polydispersity index by dynamic light scattering
- Assay type: physicochemical
- conditionSet: FxNP, siFLuc, DOPC
Respond with met for Hydrodynamic diameter (nm) values of 200 nm and above, not met for values below.

Ask | Identify whether the reported Hydrodynamic diameter (nm) of the following compound is 200 nm or greater: CC12CCC3c4ccc(O)cc4CC(CCCCCCCCCS(=O)(CCCC(F)(F)C(F)(F)F)=NC(=O)CCN4CCCCC4)C3C1CCC2O (stereo not shown) [7g]
Reply | not met

Ask | Hi team, for CC12CCC3c4ccc(O)cc4CC(CCCCCCCCCS(=O)(CCCC(F)(F)C(F)(F)F)=NC(=O)CN4CCOCC4)C3C1CCC2O (stereo not shown) [7a] , is the recorded Hydrodynamic diameter (nm) at or above 200 nm?
Reply | met

Ask | Can CC12CCC3c4ccc(O)cc4CC(CCCCCCCCCS(=O)(CCCC(F)(F)C(F)(F)F)=NC(=O)Cn4ccnc4)C3C1CCC2O (stereo not shown) [7b] be said to have Hydrodynamic diameter (nm) at or above 200 nm?
Reply | met

Ask | Check this compound for Hydrodynamic diameter (nm) at or above 200 nm: CC12CCC3c4ccc(O)cc4CC(CCCCCCCCCS(=O)(CCCC(F)(F)C(F)(F)F)=NC(=O)CN4CCCCC4)C3C1CCC2O (stereo not shown) [7e]
Reply | met

Ask | Record CC12CCC3c4ccc(O)cc4CC(CCCCCCCCCS(=O)(CCCC(F)(F)C(F)(F)F)=NC(=O)CCn4ccnc4)C3C1CCC2O (stereo not shown) [7c] ; criterion: Hydrodynamic diameter (nm) no lower than 200 nm. Met?
Reply | not met

Ask | Confirm if Hydrodynamic diameter (nm) reported for the compound CN(C)CC(=O)N=S(=O)(CCCCCCCCCC1Cc2cc(O)ccc2C2CCC3(C)C(O)CCC3C12)CCCC(F)(F)C(F)(F)F (stereo not shown) [7f] is 200 nm or above.
Reply | not met

* * *

Exercise: for every item that follows, state its recorded Encapsulation efficiency (%).
- experimentalDetails: RNA encapsulation efficiency (modified Quant-iT RiboGreen assay) and loading
- Assay type: physicochemical
- conditionSet: FxNP, sinLuc, DOPC
Number in %, nothing else.

Ask | Data request, read-out Encapsulation efficiency (%), for CC12CCC3c4ccc(O)cc4CC(CCCCCCCCCS(=O)(CCCC(F)(F)C(F)(F)F)=NC(=O)CCn4ccnc4)C3C1CCC2O (stereo not shown)
Reply | 73.7

Ask | # Encapsulation efficiency (%) lookup, item CC12CCC3c4ccc(O)cc4CC(CCCCCCCCCS(=O)(CCCC(F)(F)C(F)(F)F)=NC(=O)CCN4CCCCC4)C3C1CCC2O (stereo not shown)
Reply | 94.9

Ask | Which Encapsulation efficiency (%) value belongs to CC12CCC3c4ccc(O)cc4CC(CCCCCCCCCS(=O)(CCCC(F)(F)C(F)(F)F)=NC(=O)CCN4CCOCC4)C3C1CCC2O (stereo not shown) ?
Reply | 76.4

Ask | So what does the record say about Encapsulation efficiency (%) for CC12CCC3c4ccc(O)cc4CC(CCCCCCCCCS(=O)(CCCC(F)(F)C(F)(F)F)=NC(=O)Cn4ccnc4)C3C1CCC2O (stereo not shown) ?
Reply | 84.9

Ask | Any idea what Encapsulation efficiency (%) was measured for CN(C)CC(=O)N=S(=O)(CCCCCCCCCC1Cc2cc(O)ccc2C2CCC3(C)C(O)CCC3C12)CCCC(F)(F)C(F)(F)F (stereo not shown) ?
Reply | 92.4

Ask | Given CC12CCC3c4ccc(O)cc4CC(CCCCCCCCCS(=O)(CCCC(F)(F)C(F)(F)F)=NC(=O)CN4CCCCC4)C3C1CCC2O (stereo not shown) , state its recorded Encapsulation efficiency (%).
Reply | 89.7

Ask | Using the record for CC12CCC3c4ccc(O)cc4CC(CCCCCCCCCS(=O)(CCCC(F)(F)C(F)(F)F)=NC(=O)CN4CCOCC4)C3C1CCC2O (stereo not shown) , report its Encapsulation efficiency (%).
Reply | 79.5

The measured values listed here are drawn from patent US20250017856A1.
